# Tested on: Mus musculus
# assay.notes: Anticonvulsant activity against maximum electric shock-induced seizure in Swiss albino mouse assessed as time spent in tonic flexion phase at 20 mg/kg, ip administered 30 mins before seizure induction by electroconvulsiometer analysis
# Assay type: functional
# condition.parameters: route intraperitoneal
So I've got a bunch of molecules here, and I need their Time values.
Give a bare numeral; the unit s is implied.

[ask] Item C#CCn1cc(C2(c3cn(CC#C)c4ccccc34)C(=O)Nc3ccccc32)c2ccccc21 has what recorded Time?
[reply] 4.8

[ask] Ok, now O=C1NC(=O)C(c2ccccc2)(c2ccccc2)N1
[reply] 5.6

[ask] Do the same for C#CCN1C(=O)C(c2cn(CC=C(C)C)c3ccc(Br)cc23)(c2cn(CC=C(C)C)c3ccc(Br)cc23)c2ccccc21 please
[reply] 5.4

[ask] Okay, and C=CCn1cc(C2(c3cn(CC=C)c4ccccc34)C(=O)Nc3ccc([N+](=O)[O-])cc32)c2ccccc21 ?
[reply] 4.8

[ask] Proceed to C=CCn1cc(C2(c3cn(CC=C)c4ccc(OC)cc34)C(=O)N(CC(=O)OCC)c3ccccc32)c2cc(OC)ccc21
[reply] 4.8

[ask] Try the molecule C=CCn1cc(C2(c3cn(CC=C)c4ccc(OC)cc34)C(=O)Nc3ccccc32)c2cc(OC)ccc21
[reply] 4.8

[ask] # repeat for C#CCn1c(C)c(C2(c3c(C)n(CC#C)c4ccccc34)C(=O)Nc3ccccc32)c2ccccc21
[reply] 5.4

[ask] Moving on to the next molecule: C=CCn1cc(C2(c3cn(CC=C)c4ccc(OC)cc34)C(=O)Nc3ccc(Cl)cc32)c2cc(OC)ccc21
[reply] 5.8

* * *

# Test system: Escherichia coli
# assay.notes: Antibacterial activity against Escherichia coli K12 at 20 ug/ml after 24 hrs by cup plate method
# Type: functional
# condition.parameters: K-12, 24 h, read-out: IZ
value.type: zone of inhibition at 20 µg/mL (mm)
// units = mm; emit number, no label

[ask] Recorded zone of inhibition at 20 µg/mL for C=CCn1cc(C2(c3cn(CC=C)c4ccc(OC)cc34)C(=O)Nc3ccc(Cl)cc32)c2cc(OC)ccc21 , please?
[reply] 11

[ask] Next record, please: C=CCn1cc(C2(c3cn(CC=C)c4ccccc34)C(=O)Nc3ccccc32)c2ccccc21
[reply] 12

[ask] Now the compound C#CCN1C(=O)C(c2cn(CC=C(C)C)c3ccc(Br)cc23)(c2cn(CC=C(C)C)c3ccc(Br)cc23)c2ccccc21
[reply] 15

[ask] Query O=C1Nc2ccccc2C1(c1cn(C/C=C/c2ccccc2)c2ccccc12)c1cn(C/C=C/c2ccccc2)c2ccccc12 next
[reply] 14

* * *

# Tested on: Mus musculus
# assay.notes: Anticonvulsant activity against maximum electric shock-induced seizure in Swiss albino mouse assessed as time spent in tonic flexion phase at 20 mg/kg, ip administered 30 mins before seizure induction by electroconvulsiometer analysis
# Type: functional
# condition.parameters: route intraperitoneal
Would you kindly list Time for each of these compounds?
Your answer should be a number followed by the unit of measure.

[ask] Reported Time for C#CCN1C(=O)C(c2cn(CC#C)c3ccccc23)(c2cn(CC#C)c3ccccc23)c2ccccc21 : what is it?
[reply] 5.4 s

[ask] What about this compound? C=CCn1cc(C2(c3cn(CC=C)c4ccccc34)C(=O)Nc3ccccc32)c2ccccc21
[reply] 5.8 s

[ask] Field entry: O=C1Nc2ccccc2C1(c1cn(C/C=C/c2ccccc2)c2ccccc12)c1cn(C/C=C/c2ccccc2)c2ccccc12
[reply] 4.8 s

[ask] And then C#CCn1cc(C2(c3cn(CC#C)c4ccccc34)C(=O)N(Cc3ccccc3)c3ccccc32)c2ccccc21 , what is it?
[reply] 4.8 s

[ask] Same thing, different compound: CC(C)=CCn1cc(C2(c3cn(CC=C(C)C)c4ccc(Br)cc34)C(=O)Nc3ccccc32)c2cc(Br)ccc21
[reply] 4.8 s

[ask] Same thing, different compound: C=CCn1cc(C2(c3cn(CC=C)c4ccc(OC)cc34)C(=O)Nc3ccc(Br)cc32)c2cc(OC)ccc21
[reply] 4.8 s

* * *

# Test system: Escherichia coli
# assay.notes: Antibacterial activity against Escherichia coli K12 at 20 ug/ml after 24 hrs by cup plate method
# Assay type: functional
# condition.parameters: K-12, 24 h, read-out: IZ
value.type: zone of inhibition at 20 µg/mL
Please answer in the form of a number followed by its unit of measurement.

[ask] Requested field: zone of inhibition at 20 µg/mL. Item: C=CCn1cc(C2(c3cn(CC=C)c4ccc(OC)cc34)C(=O)Nc3ccc(Br)cc32)c2cc(OC)ccc21
[reply] 14 mm

[ask] Next: C=CCn1cc(C2(c3cn(CC=C)c4ccc(OC)cc34)C(=O)N(CC(=O)OCC)c3ccccc32)c2cc(OC)ccc21
[reply] 14 mm

[ask] Try C#CCn1cc(C2(c3cn(CC#C)c4ccccc34)C(=O)Nc3ccccc32)c2ccccc21 next.
[reply] 10 mm

[ask] Same lookup for C#CCn1cc(C2(c3cn(CC#C)c4ccccc34)C(=O)N(Cc3ccccc3)c3ccccc32)c2ccccc21 , please.
[reply] 17 mm

[ask] Then what about the molecule C#CCn1c(C)c(C2(c3c(C)n(CC#C)c4ccccc34)C(=O)Nc3ccccc32)c2ccccc21 ?
[reply] 15 mm

[ask] Entry to check: NCC[C@H](O)C(=O)N[C@@H]1C[C@H](N)[C@@H](O[C@H]2O[C@H](CN)[C@@H](O)[C@H](O)[C@H]2O)[C@H](O)[C@H]1O[C@H]1O[C@H](CO)[C@@H](O)[C@H](N)[C@H]1O
[reply] 18 mm

[ask] Similarly, C=CCn1cc(C2(c3cn(CC=C)c4ccc(OC)cc34)C(=O)Nc3ccccc32)c2cc(OC)ccc21 ?
[reply] 10 mm

[ask] Next molecule: CC(C)=CCn1cc(C2(c3cn(CC=C(C)C)c4ccc(Br)cc34)C(=O)Nc3ccccc32)c2cc(Br)ccc21
[reply] 12 mm

[ask] // same read-out, input: C=CCn1cc(C2(c3cn(CC=C)c4ccccc34)C(=O)Nc3ccc([N+](=O)[O-])cc32)c2ccccc21
[reply] 10 mm

[ask] Another molecule to look at: C#CCN1C(=O)C(c2cn(CC#C)c3ccccc23)(c2cn(CC#C)c3ccccc23)c2ccccc21
[reply] 10 mm

The reported measurements were obtained from ChEMBL document CHEMBL1795234.
